Numbers sourced from ChEMBL document CHEMBL4038310.

assay: Cmax in Sprague-Dawley rat at 10 mg/kg, po; format: ADME, organism-based; design: dose 10 mg/kg, route oral; conditions: in vivo
quantity.kind: Cmax (ng/mL)

[[record]]
smi = "O=C(CN1CCCC2=C1C(=O)N(C1CC1)C2=O)Nc1ccc(-c2cccnc2)nn1"
numeric_result = 17300


====

assay: Thermodynamic solubility of compound at pH 7.4; assay type: physicochemical; conditions: buffer, read-out: Therm_solubility
Listed here are compounds together with their documented solubility thermodynamic.
quantity.kind: solubility thermodynamic (µg/mL)

[[record]]
smi = "Cc1ccc(-c2ccc(NC(=O)CN3CCCC4=C3C(=O)N(C3CC3)C4=O)nn2)cn1"
quantity_kind = "solubility thermodynamic"
numeric_result = 11.1

[[record]]
smi = "CN1C(=O)C2=C(C1=O)N(CC(=O)Nc1ccc(-c3ccccc3)nn1)CCC2"
quantity_kind = "solubility thermodynamic"
numeric_result = 3.34

[[record]]
smi = "CN1C(=O)C2=C(C1=O)N(CC(=O)Nc1ccc(-c3cccnc3)nc1)CCC2"
quantity_kind = "solubility thermodynamic"
numeric_result = 13

[[record]]
smi = "CN1C(=O)C2=C(C1=O)N(CC(=O)Nc1ccc(-c3ccccc3)cc1)CCC2"
quantity_kind = "solubility thermodynamic"
numeric_result = 2.1

[[record]]
smi = "CN1C(=O)C2=C(C1=O)N(CC(=O)Nc1ccc(-c3ccccc3)cn1)CCC2"
quantity_kind = "solubility thermodynamic"
numeric_result = 0.24

[[record]]
smi = "O=C(CN1CCCC2=C1C(=O)N(C1CC1)C2=O)Nc1ccc(-c2cncc(F)c2)nn1"
quantity_kind = "solubility thermodynamic"
numeric_result = 14.9

[[record]]
smi = "CN1C(=O)C2=C(C1=O)N(CC(=O)Nc1ccc(-c3cncc(F)c3)nn1)CCC2"
quantity_kind = "solubility thermodynamic"
numeric_result = 41

[[record]]
smi = "CN1C(=O)C2=C(C1=O)N(CC(=O)Nc1ccc(-c3ccccc3)nc1)CCC2"
quantity_kind = "solubility thermodynamic"
numeric_result = 0.75

[[record]]
smi = "Cc1ccc(-c2ccc(NC(=O)CN3CCCC4=C3C(=O)N(C)C4=O)nn2)cn1"
quantity_kind = "solubility thermodynamic"
numeric_result = 35.5

[[record]]
smi = "CN1C(=O)c2cccc(CC(=O)Nc3ccc(-c4nccs4)cc3)c2C1=O"
quantity_kind = "solubility thermodynamic"
numeric_result = 0.42

[[record]]
smi = "CN1C(=O)C2=C(C1=O)N(CC(=O)Nc1ccc(-c3cccnc3)nn1)CCC2"
quantity_kind = "solubility thermodynamic"
numeric_result = 9.5

[[record]]
smi = "O=C(CN1CCCC2=C1C(=O)N(C1CC1)C2=O)Nc1ccc(-c2cccnc2)nn1"
quantity_kind = "solubility thermodynamic"
numeric_result = 60

